The measured values listed here are drawn from ChEMBL document CHEMBL1158957.

# Organism: Sus scrofa
# methodSummary: Inhibition of H+/K+ ATPase in pig stomach at 100 uM
# Assay type: tissue-based
quantity: inhibition (%)

• COC(=O)[C@]1(C)CCC[C@@]2(C)[C@H]1[C@H](O)C[C@H]1CC(=O)[C@@]3(C)CC[C@]12C3 = 52
• COC(=O)[C@]1(C)CCC[C@@]2(C)[C@H]1[C@H](OC(=O)c1ccccc1)C[C@H]1CC(=O)[C@@]3(C)CC[C@]12C3 = 81

a. COC(=O)[C@]1(C)CCC[C@@]2(C)[C@H]1[C@H](OC(=O)c1ccccc1)C[C@H]1C[C@@H](O)[C@@]3(C)CC[C@]12C3
b. CC(=O)O[C@H]1C[C@@H]2C[C@@H](O)[C@H]3[C@](C)(C(=O)O)CCC[C@]3(C)[C@]23CC[C@@]1(C)C3
Which has the smaller recorded inhibition, a or b ? State the label of the item chosen.
b
(b: 21%, a: 64%)

###

# Species: Sus scrofa
# methodSummary: Inhibition of H+/K+ ATPase in pig stomach at 1 uM
# Type: tissue-based
quantity: inhibition (%)

The following molecules have reported results that may help.
- CC(=O)O[C@@H]1C[C@@H]2C[C@@H](OC(=O)c3ccccc3)[C@H]3[C@](C)(C(=O)O)CCC[C@]3(C)[C@]23CC[C@@]1(C)C3: 7
- COC(=O)[C@]1(C)CCC[C@@]2(C)[C@H]1[C@H](OC(=O)c1ccccc1)C[C@H]1C[C@H](O)[C@@]3(C)CC[C@]12C3: 10
- CC(=O)OC[C@]1(C)CCC[C@@]2(C)[C@H]1[C@H](O)C[C@H]1C[C@H](OC(C)=O)[C@@]3(C)CC[C@]12C3: 5

1. COC(=O)[C@]1(C)CCC[C@@]2(C)[C@H]1[C@H](O)C[C@H]1C[C@H](O)[C@@]3(C)CC[C@]12C3
2. COC(=O)[C@]1(C)CCC[C@@]2(C)[C@H]1[C@H](OC(=O)c1ccccc1)C[C@H]1C[C@H](OC(C)=O)[C@@]3(C)CC[C@]12C3
Compare inhibition: is it lower for 1 or for 2 ? # reply format: chosen label
1
